Data provenance is patent US20260151494A1.

# Target Entity: T1, human CD71 extracellular domain (human, UniProt P02786 89-760)
# T1 construct: also called hCD71; CD71-ECD
# T1 sequence (P02786 89-760): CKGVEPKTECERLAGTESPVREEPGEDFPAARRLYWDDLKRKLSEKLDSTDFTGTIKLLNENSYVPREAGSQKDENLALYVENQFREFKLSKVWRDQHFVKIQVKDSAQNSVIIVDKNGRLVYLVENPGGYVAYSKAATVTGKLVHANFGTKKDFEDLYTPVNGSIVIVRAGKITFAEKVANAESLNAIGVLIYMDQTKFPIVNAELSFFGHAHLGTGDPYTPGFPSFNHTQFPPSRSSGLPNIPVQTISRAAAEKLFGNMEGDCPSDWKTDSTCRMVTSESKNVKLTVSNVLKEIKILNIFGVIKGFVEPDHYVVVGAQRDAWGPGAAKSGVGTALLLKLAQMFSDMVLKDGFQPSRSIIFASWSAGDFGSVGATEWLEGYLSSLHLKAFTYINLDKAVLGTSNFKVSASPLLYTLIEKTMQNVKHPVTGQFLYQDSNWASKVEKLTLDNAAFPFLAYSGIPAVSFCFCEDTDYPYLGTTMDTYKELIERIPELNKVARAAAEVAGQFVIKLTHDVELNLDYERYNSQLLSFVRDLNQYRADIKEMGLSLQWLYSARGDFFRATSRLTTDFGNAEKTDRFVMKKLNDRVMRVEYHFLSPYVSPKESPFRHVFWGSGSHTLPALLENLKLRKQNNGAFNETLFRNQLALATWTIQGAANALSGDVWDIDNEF
# Assay Details: primary ELISA; signal over HSA control
Observation Type: hCD71:HSA (ratio)

Binder: CD71-binding FN3 domain SEQ ID NO 402 (designed binder) MLPAPKNLVVSRVTEDSARLSWTAPDAAFDSFGIYYWEYTGGEAIVLTVPGSERSYDLTGLKPGTEYVVRILGVKGGAYSTPLSAIFTT
Unit Name: ratio
Endpoint Result: 209

Binder: CD71-binding FN3 domain SEQ ID NO 400 (designed binder) MLPAPKNLVVSRVTEDSARLSWTAPDAAFDSFFIGYLEPQPPGEAIHLFVPGSERSYDLTGLKPGTEYNVTIQGVKGGFPSGPLHATFTT
Unit Name: ratio
Endpoint Result: 141

Binder: CD71-binding FN3 domain SEQ ID NO 376 (designed binder) MLPAPKNLVVSRVTEDSARLSWTAPDAAFDSFFIGYLEPQPPGEAIALLVPGSERSYDLTGLKPGTEYNVTIQGVKGGFPSNPLEAKFTT
Unit Name: ratio
Endpoint Result: 153

Binder: CD71-binding FN3 domain SEQ ID NO 392 (designed binder) MLPAPKNLVVSRVTEDSARLSWTAPDAAFDSFFIGYLEPQPPGEAIHLGVPGSERSYDLTGLKPGTEYNVTIQGVKGGFPSLPLVATFTT
Unit Name: ratio
Endpoint Result: 237

Binder: CD71-binding FN3 domain SEQ ID NO 415 (designed binder) MLPAPKNLVVSRVTEDSARLSWTAPDAAFDSFFIGYLEPQPPGEAIHLQVPGSERSYDLTGLKPGTEYNVTIQGVKGGFPSMPLSAIFTT
Unit Name: ratio
Endpoint Result: 501
